# experimentalTarget: T1, SWSAP1 D96A (Walker B);hSWS1 (Homo sapiens;Homo sapiens, UniProt Q6NVH7;Q19AV6 22-250;1-140, D117A|)
# T1 sequence 1: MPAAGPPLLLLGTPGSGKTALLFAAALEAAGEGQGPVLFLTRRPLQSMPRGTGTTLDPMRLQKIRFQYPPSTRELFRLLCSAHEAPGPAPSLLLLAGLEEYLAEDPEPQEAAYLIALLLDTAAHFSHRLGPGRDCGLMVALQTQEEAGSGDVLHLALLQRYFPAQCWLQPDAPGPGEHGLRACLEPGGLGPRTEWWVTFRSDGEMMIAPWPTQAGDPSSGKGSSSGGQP
# T1 sequence 2: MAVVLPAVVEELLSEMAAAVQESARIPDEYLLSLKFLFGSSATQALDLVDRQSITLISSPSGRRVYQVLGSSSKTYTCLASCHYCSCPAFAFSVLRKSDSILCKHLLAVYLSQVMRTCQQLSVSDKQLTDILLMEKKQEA
# experimentalDetails: fluorescence polarization; 2 mM ATP; FPA: 5 nM 6-FAM DNA, 37 C, 2 mM nucleotide where stated (buffer not given in material); EMSA: 0.05 uM 6-FAM DNA, 5%/15% native PAGE; RAD51 filaments: 2 mM ATP
# conditionSummary: protein: recombinant;recombinant; tags: N-terminal 6xHis-TEV, cleaved;none; copies: 1;1; label: 3' 6-FAM on strand 1; 5' overhang 20 nt
reportedMetric: pKd
Kindly note that pKd refers to -log10 of the concentration in mol/L and answer with the value alone.

Any idea what its pKd is? The binder is 5'-overhang (dsDNA) DNA 1: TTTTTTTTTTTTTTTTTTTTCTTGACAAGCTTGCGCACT DNA 2: AGTGCGCAAGCTTGTCAAG
5.37

Cited source for all entries: paper PMC12167799
